- target.entity: human KDM5D PHD1 finger (human, Zn2+-bound; 15N-labelled)
- experimental.protocol: NMR titration
recorded.endpoint: Kd

# Kd of ARTKQTARKSTG (peptide, UniProt P68431 2-13, looked up) [H3K4me0 peptide (aa 1-12 of H3)] = 3.5 mM
